// provenance: the supplement of paper PMC8975748

Kindly state z-score of subpopulation abundance for each of the entries shown.
# Tested on: Saccharomyces cerevisiae BY4741 SeMeCo community
# Assay: z-score of subpopulation abundance vs DMSO median, subpopulation auxotrophic for H; higher = larger share of this subpopulation than in DMSO controls
# Condition set: 10 µM; 24 h; SM minimal medium; subpopulation (auxotrophy): H
Structures can show the parent of a compound that is named as a salt.
Answers are plain numbers.

Query: Which z-score of subpopulation abundance reading was recorded for the compound C=CC[C@@H]1/C=C(\C)C[C@H](C)C[C@H](OC)[C@H]2O[C@@](O)(C(=O)C(=O)N3CCCC[C@H]3C(=O)O[C@H](/C(C)=C/[C@@H]3CC[C@@H](O)[C@H](OC)C3)[C@H](C)[C@@H](O)CC1=O)[C@H](C)C[C@@H]2OC ?
Result: 1.87

Query: Which z-score of subpopulation abundance reading was recorded for the compound CO[C@@]1(NC(=O)Cc2cccs2)C(=O)N2C(C(=O)O)=C(COC(N)=O)CS[C@@H]21 [Cefoxitin sodium] ?
Result: -0.25

Query: Which z-score of subpopulation abundance reading was recorded for the compound CCn1cc(C(=O)O)c(=O)c2cc(F)c(N3CCNCC3)cc21 ?
Result: 0.31

Query: Which z-score of subpopulation abundance reading was recorded for the compound CC1(C)S[C@@H]2[C@H](NC(=O)[C@H](N)c3ccccc3)C(=O)N2[C@H]1C(=O)O [Ampicillin sodium] ?
Result: -0.9

Query: Which z-score of subpopulation abundance reading was recorded for the compound C[C@H]1COc2c(N3CCN(C)CC3)c(F)cc3c(=O)c(C(=O)O)cn1c23 ?
Result: -0.42

Please state, for each entry, its recorded z-score of subpopulation abundance.
1. NC12CC3CC(CC(C3)C1)C2 [Amantadine HCl]
2. CN(C)CCCC1(c2ccc(F)cc2)OCc2cc(C#N)ccc21 (configuration not stated)

Result:
-0.11
0.36

====

# Tested on: Saccharomyces cerevisiae BY4741 SeMeCo community
# Assay: z-score of subpopulation abundance vs DMSO median, subpopulation auxotrophic for UM; higher = larger share of this subpopulation than in DMSO controls
# Condition set: 10 µM; 24 h; SM minimal medium; subpopulation (auxotrophy): UM
Where a name gives a salt, the structure may show the parent alone.
Measured metric: z-score of subpopulation abundance
Answers are plain numbers.

Reference set, count: 5
Query: Which z-score of subpopulation abundance reading was recorded for the compound Oc1c(I)cc(I)c2cccnc12 [Diiodohydroxyquinoline] ?
Result: 0.65

Query: Which z-score of subpopulation abundance reading was recorded for the compound CC(C)c1nc(N(C)S(C)(=O)=O)nc(-c2ccc(F)cc2)c1/C=C/[C@@H](O)C[C@@H](O)CC(=O)O [Rosuvastatin] ?
Result: 1

Query: Which z-score of subpopulation abundance reading was recorded for the compound CCC(=O)O[C@@H]1CC(=O)O[C@H](C)C/C=C/C=C/[C@H](O)[C@H](C)C[C@H](CC=O)[C@H](O[C@@H]2O[C@H](C)[C@@H](O[C@H]3C[C@@](C)(O)[C@@H](OC(=O)CC)[C@H](C)O3)[C@H](N(C)C)[C@H]2O)[C@H]1OC ?
Result: -0.3

Query: Which z-score of subpopulation abundance reading was recorded for the compound NC[C@H]1O[C@H](O[C@H]2[C@H](O)[C@@H](O[C@H]3O[C@H](CO)[C@@H](O)[C@H](N)[C@H]3O)[C@H](N)C[C@@H]2N)[C@H](N)C[C@@H]1O ?
Result: 0.54

Query: Which z-score of subpopulation abundance reading was recorded for the compound Nc1ccc(C(=O)O)c(O)c1 ?
Result: -2.19

Please state, for each entry, its recorded z-score of subpopulation abundance.
1. O=C(CCCN1CCC(O)(c2ccc(Cl)cc2)CC1)c1ccc(F)cc1
2. Cc1cc(O)cc(C)c1Cl
3. COc1cc([C@@H]2c3cc4c(cc3[C@@H](O[C@@H]3O[C@@H]5CO[C@@H](c6cccs6)O[C@H]5[C@H](O)[C@H]3O)[C@H]3COC(=O)[C@H]23)OCO4)cc(OC)c1O [Teniposide]
4. CCOC(=O)OC(C)OC1=C(C(=O)Nc2ccccn2)N(C)S(=O)(=O)c2ccccc21 (stereo not given)
5. CC(C(=O)O)c1ccc2c(c1)CC(=O)c1ccccc1S2 (stereo not given)
6. CC1(C)S[C@@H]2[C@H](NC(=O)COc3ccccc3)C(=O)N2[C@H]1C(=O)O [Penicillin V potassium salt]
7. CCC(=O)c1c(O)cc(O)cc1O
8. O=C(O)c1ccccc1C(=O)Nc1ccc(S(=O)(=O)Nc2nccs2)cc1

Result:
-0.69
1.27
0.67
0.08
-1.01
0.57
0.25
1.23

Please state, for each entry, its recorded z-score of subpopulation abundance.
1. CCC1=C(C)CN(C(=O)NCCc2ccc(S(=O)(=O)NC(=O)N[C@H]3CC[C@H](C)CC3)cc2)C1=O [Glimepiride]
2. CO/N=C(\C(=O)N[C@@H]1C(=O)N2C(C(=O)OCOC(=O)C(C)(C)C)=C(/C=C\c3scnc3C)CS[C@H]12)c1csc(N)n1

Result:
1: 0.19; 2: -0.06
